Test system: Staphylococcus aureus
assay.method.text: Antimicrobial activity against Staphylococcus aureus ATCC 25923 after 18 hrs by serial dilution test
Assay type: functional
condition.context: ATCC 25923, 18 h
observed.property: MIC

smiles_data=CC(=O)c1ccc(C(=O)N/N=C/c2ccc([N+](=O)[O-])s2)cc1 system_tested="Staphylococcus aureus" value="≤ 0.44 µM"
smiles_data=O=C(N/N=C/c1ccc([N+](=O)[O-])s1)c1ccc(Cl)cc1 system_tested="Staphylococcus aureus" value="≤ 5.52 µM"
smiles_data=CCCCc1ccc(C(=O)N/N=C/c2ccc([N+](=O)[O-])s2)cc1 system_tested="Staphylococcus aureus" value="≤ 40.7 µM"
smiles_data=C=Cc1ccc(C(=O)N/N=C/c2ccc([N+](=O)[O-])s2)cc1 system_tested="Staphylococcus aureus" value="≤ 15.7 µM"
smiles_data=CCCCNc1ccc(C(=O)N/N=C/c2ccc([N+](=O)[O-])s2)cc1 system_tested="Staphylococcus aureus" value="≤ 22.4 µM"
smiles_data=O=C(N/N=C/c1ccc([N+](=O)[O-])s1)c1ccc(I)cc1 system_tested="Staphylococcus aureus" value="≤ 14 µM"
smiles_data=CCCCOc1ccc(C(=O)N/N=C/c2ccc([N+](=O)[O-])s2)cc1 system_tested="Staphylococcus aureus" value="≤ 35.4 µM"
smiles_data=O=C(N/N=C/c1ccc([N+](=O)[O-])s1)c1ccc(Cl)c(Cl)c1 system_tested="Staphylococcus aureus" value="≤ 2.21 µM"

* * *

Tested on: Staphylococcus aureus
assay.method.text: Antimicrobial activity against Staphylococcus aureus ATCC 25923 after 18 hrs by serial dilution test
Assay type: functional
condition.context: ATCC 25923, 18 h
observed.property: MIC

smiles_data=O=C(N/N=C/c1ccc([N+](=O)[O-])s1)c1ccc(Br)cc1 system_tested="Staphylococcus aureus" observed_property=MIC value="≤ 2.12 µM"
smiles_data=O=C(N/N=C/c1ccc([N+](=O)[O-])s1)c1ccccc1 system_tested="Staphylococcus aureus" observed_property=MIC value="≤ 16.7 µM"
smiles_data=CCCc1ccc(C(=O)N/N=C/c2ccc([N+](=O)[O-])s2)cc1 system_tested="Staphylococcus aureus" observed_property=MIC value="≤ 36.5 µM"
smiles_data=CCCOc1ccc(C(=O)N/N=C/c2ccc([N+](=O)[O-])s2)cc1 system_tested="Staphylococcus aureus" observed_property=MIC value="≤ 24.3 µM"
smiles_data=CC(C)c1ccc(C(=O)N/N=C/c2ccc([N+](=O)[O-])s2)cc1 system_tested="Staphylococcus aureus" observed_property=MIC value="≤ 28.6 µM"
smiles_data=CCc1ccc(C(=O)N/N=C/c2ccc([N+](=O)[O-])s2)cc1 system_tested="Staphylococcus aureus" observed_property=MIC value="≤ 22.2 µM"

* * *

Entries annotated with measured log10(MIC)
System: Staphylococcus aureus
assay.method.text: Antimicrobial activity against multidrug-resistant Staphylococcus aureus 3SP/R33 after 18 hrs by serial dilution test
Type: functional
condition.context: 3SP/R33, 18 h
observed.property: log10(MIC) (log10 of the value in µg/mL)

smiles_data=CCCCOc1ccc(C(=O)N/N=C/c2ccc([N+](=O)[O-])s2)cc1 observed_property=log10(MIC) value=1.01
smiles_data=CC(=O)c1ccc(C(=O)N/N=C/c2ccc([N+](=O)[O-])s2)cc1 observed_property=log10(MIC) value=-0.96
smiles_data=O=C(N/N=C/c1ccc([N+](=O)[O-])s1)c1ccc(Br)cc1 observed_property=log10(MIC) value=-0.20
smiles_data=CCc1ccc(C(=O)N/N=C/c2ccc([N+](=O)[O-])s2)cc1 observed_property=log10(MIC) value=0.76
smiles_data=O=C(N/N=C/c1ccc([N+](=O)[O-])s1)c1ccc(Cl)c(Cl)c1 observed_property=log10(MIC) value=-0.20
smiles_data=CCCc1ccc(C(=O)N/N=C/c2ccc([N+](=O)[O-])s2)cc1 observed_property=log10(MIC) value=0.86
smiles_data=O=C(N/N=C/c1ccc([N+](=O)[O-])s1)c1ccccc1 observed_property=log10(MIC) value=0.59
smiles_data=CC(C)c1ccc(C(=O)N/N=C/c2ccc([N+](=O)[O-])s2)cc1 observed_property=log10(MIC) value=0.70
smiles_data=O=C(N/N=C/c1ccc([N+](=O)[O-])s1)c1ccc(Cl)cc1 observed_property=log10(MIC) value=0.04
smiles_data=CCCCNc1ccc(C(=O)N/N=C/c2ccc([N+](=O)[O-])s2)cc1 observed_property=log10(MIC) value=0.79
smiles_data=C=Cc1ccc(C(=O)N/N=C/c2ccc([N+](=O)[O-])s2)cc1 observed_property=log10(MIC) value=0.53
smiles_data=CCCCc1ccc(C(=O)N/N=C/c2ccc([N+](=O)[O-])s2)cc1 observed_property=log10(MIC) value=1.10
smiles_data=O=C(N/N=C/c1ccc([N+](=O)[O-])s1)c1ccc(I)cc1 observed_property=log10(MIC) value=0.74
